Let's look at some molecules and their measured TGI.
- Tested on: HOP-62 NSCLC
- Protocol summary: NCI tumour cell line growth inhibition, 48 h

Below, 5 molecules whose answers are already recorded.
Fc1ccc(-c2ncn(C3CCNCC3)c2-c2ccnc(Oc3ccc(Cl)cc3)n2)cc1; 7.46 µM
CSC(=S)NCc1cn(C)c2ccccc12; > 100 µM
CCOC1=C/C(=N\Nc2ccc([N+](=O)[O-])cc2)CCC1; > 100 µM
COc1ccc(C(=O)Cn2c(C(=O)c3ccc(Cl)cc3)nc(-c3ccccc3)c2-c2ccccc2)cc1; > 100 µM
CN(CCOc1ccc(NS(C)(=O)=O)cc1)CCc1ccc(NS(C)(=O)=O)cc1; > 100 µM

Recorded TGI for CCCCn1c(-c2ccccc2)cs/c1=N\NC(=O)Cn1c(C)nc2ccccc21 on HOP-62 NSCLC was > 100 µM

Recorded TGI for CC1(C)CC(=O)C2=C(C1)NC(=S)C(C#N)C2c1ccccc1 (stereo unspecified) on HOP-62 NSCLC was > 100 µM

Recorded TGI for CCSc1c2ccccc2nc2c(OC)ccc(OC)c12 on HOP-62 NSCLC was 97.2 µM

Recorded TGI for Cn1cc(-c2csc(-c3ccc(Cl)cc3)n2)c2cccnc21 on HOP-62 NSCLC was 32.4 µM

Recorded TGI for CC1(C)Cc2ccccc2C(C)(Cl)C(=O)N1 (stereo unspecified) on HOP-62 NSCLC was > 10 µM

Recorded TGI for COC(OC)c1cccnc1C on HOP-62 NSCLC was > 100 µM

Value source: PubChem BioAssay (NCI)
